Data credit: paper doi:10.1101/718155

# Study System: S100A11
# Test Summary: FP; competitive
Readout: Kd (µM)
Record the value in µM, omitting the unit from your answer.

Recall and state the measured Kd for VLQTWLQDLLRRGLVRAAQ [TRPM4 (129-147) peptide] .
106
